# Test system: L. amazonensis
# assay.notes: Growth inhibition of L. amazonensis promastigotes (resazurin)
# condition: Leishmania amazonensis, read-out: EC50 ± SD L. amaz
readout: pEC50
Kindly note that pEC50 refers to -log10 of the concentration in mol/L and answer with the value alone.

Completed entries (count: 2):
INSERT INTO assay_data (molecule, observed) VALUES
  ('O=C(/C=C/c1cccs1)/C=C/c1cccs1', 5.10),
  ('C=CCn1c(-c2ccc(Cl)cc2)cs\c1=N/N=C/C=C/c1ccco1', 5.15);

(Q) Dear colleague, I am looking for the recorded pEC50 of the following molecule: `O=C1/C(=C/C=C/c2ccco2)CCC/C1=C\C=C\c1ccco1`
(A) 5.15

(Q) Also `C=CCn1c(C(=O)N2CCN(C/C=C/c3ccccc3)CC2)cs\c1=N/N=C/C=C/c1ccco1` , if possible.
(A) 4.92

---

Examples of compounds with documented pEC50 follow.
# Tested on: L. infantum reference strain (MHOM/BR/2002/LPC-RPV)
# assay.notes: Growth inhibition of L. infantum reference strain promastigotes (resazurin)
# condition: Leishmania infantum, read-out: EC50 ± SD Lin–Ref
Bear in mind: pEC50 is minus log10 of a mol/L concentration; give just that figure.

INSERT INTO results (compound, observed) VALUES
  ('O=C(/C=C/c1cccs1)/C=C/c1cccs1 [Compound 796]', 5.40);

(Q) For C=CCn1c(C(=O)N2CCN(C/C=C/c3ccccc3)CC2)cs\c1=N/N=C/C=C/c1ccco1 [Compound 314] , what is its reported pEC50?
(A) 5.89

(Q) Next up: COc1cc(/C=C/C(=O)CC(=O)/C=C/c2ccc(O)c(OC)c2)ccc1O [Curcumin, reference compound]
(A) 5.30

(Q) Could you do the same for CC1CS(=O)(=O)CCN1/N=C/c1ccc([N+](=O)[O-])o1 (stereo not drawn) [Nifurtimox, reference compound] , please?
(A) 5.22

(Q) Quick one: C=CCn1c(-c2ccc(Cl)cc2)cs\c1=N/N=C/C=C/c1ccco1 [Compound 266]
(A) 5.70

---

# Tested on: L. infantum reference strain (MHOM/BR/2002/LPC-RPV)
# assay.notes: Growth inhibition of L. infantum reference strain promastigotes (resazurin)
# condition: EC50 J774.1 macrophages versus L. infantum reference strain
Entries and their measured Selectivity Index MΦ/Reference follow.

// known answers, use as guide
INSERT INTO results (compound, observed) VALUES
  ('COc1cccc(-n2nnnc2S(C)(=O)=O)c1 [MMV272144]', '>21'),
  ('CCCCCCCCCCCCCCCCOP(=O)([O-])OCC[N+](C)(C)C [Miltefosine, reference compound]', 10),
  ('CNc1nnc(Sc2cnn(-c3ccccc3)c(=O)c2Cl)s1 [MMV688763]', '>24'),
  ('CS(=O)(=O)c1ccc(C(=O)N(C[C@H]2CCCO2)c2nc3ccccc3s2)cc1[N+](=O)[O-] [MMV688761]', '>10'),
  ('c1ccc(-c2nc(NC3CCCCC3)cc(C3CC3)n2)nc1 [MMV021013]', '>125');

Now look at this one.
(Q) Tell me reported Selectivity Index MΦ/Reference for Cc1[nH]c2ccccc2c1[C@H](c1cccs1)N1CCN(C)CC1 [MMV688768] , tested with L. infantum reference strain (MHOM/BR/2002/LPC-RPV).
(A) >5

---

# assay.notes: in vivo
# condition: male, B6D2F1, mouse, po, 2000 mg/kg
readout: LD50 at 14 days

(Q) Any idea what its LD50 at 14 days is? The molecule is `O=C(/C=C/c1cccs1)/C=C/c1cccs1`
(A) > 2000 mg/kg

---

# assay.notes: Nonspecific cytotoxicity in murine macrophages (MTT)
# condition: mouse, J774.1 murine macrophages
readout: EC50 at 48 h

Some molecules with recorded EC50 at 48 h:
INSERT INTO assay_data (molecule, observed) VALUES
  ('CS(=O)(=O)c1ccc(C(=O)N(C[C@H]2CCCO2)c2nc3ccccc3s2)cc1[N+](=O)[O-]', '> 50 µM'),
  ('COc1cccc(-n2nnnc2S(C)(=O)=O)c1', '> 50 µM'),
  ('CCCCCCCCCCCCCCCCOP(=O)([O-])OCC[N+](C)(C)C [Miltefosine, reference compound]', '50 µM'),
  ('Cc1[nH]c2ccccc2c1[C@H](c1cccs1)N1CCN(C)CC1', '> 50 µM'),
  ('c1ccc(-c2nc(NC3CCCCC3)cc(C3CC3)n2)nc1', '> 50 µM');

(Q) Report EC50 at 48 h for `CNc1nnc(Sc2cnn(-c3ccccc3)c(=O)c2Cl)s1` please.
(A) > 50 µM

---

Catalogue of EC50 values
# Test system: L. infantum reference strain (MHOM/BR/2002/LPC-RPV)
# assay.notes: Growth inhibition of L. infantum reference strain promastigotes (resazurin)
# condition: read-out: EC50 ± SD Lin–Ref; Table 4, curcuminoids; L. infantum reference strain

INSERT INTO results (compound, observed) VALUES
  ('O=C(C=Cc1ccco1)C=Cc1ccco1 [Compound 795]', '5000 nM'),
  ('O=C1C(=CC=Cc2cccs2)CCCC1=CC=Cc1cccs1 [Compound 1245]', '< 300 nM'),
  ('O=C1C(=Cc2ccccc2)CCCC1=Cc1ccccc1 [Compound 799]', '< 300 nM'),
  ('O=C1C(=CC=Cc2cccs2)CCC1=CC=Cc1cccs1 [Compound 1018]', '< 300 nM'),
  ('O=C(C=CC=Cc1cccs1)C=CC=Cc1cccs1 [Compound 798]', '3000 nM');

(Q) Any idea what EC50 was measured for CC(C=CC(=O)C=CC(C)=Cc1ccco1)=Cc1ccco1 [Compound 809] ?
(A) 3000 nM

(Q) Can you handle O=C(C=CC=Cc1ccco1)C=CC=Cc1ccco1 [Compound 793] next?
(A) < 300 nM

(Q) Repeat for the following compound: O=C1C(=CC=Cc2ccco2)CCC1=CC=Cc1ccco1 [Compound 1223]
(A) < 300 nM

---

# Test system: L. infantum veterinary isolate (MCAN_UY_2015_gPL8)
# assay.notes: Growth inhibition of L. infantum veterinary isolate promastigotes (resazurin)
# condition: EC50 J774.1 macrophages versus L. infantum veterinary isolate
// values below are reported Selectivity Index MΦ/Veterinary

INSERT INTO assay_data (compound, observed) VALUES
  ('CS(=O)(=O)c1ccc(C(=O)N(C[C@H]2CCCO2)c2nc3ccccc3s2)cc1[N+](=O)[O-]', '>13');

(Q) Look up Selectivity Index MΦ/Veterinary: CCCCCCCCCCCCCCCCOP(=O)([O-])OCC[N+](C)(C)C [Miltefosine, reference compound]
(A) 12

(Q) Param item: `Cc1[nH]c2ccccc2c1[C@H](c1cccs1)N1CCN(C)CC1`
(A) >7

(Q) For `CNc1nnc(Sc2cnn(-c3ccccc3)c(=O)c2Cl)s1` then?
(A) >56

(Q) Same question for `COc1cccc(-n2nnnc2S(C)(=O)=O)c1` please.
(A) >42

(Q) Another compound to look at: `c1ccc(-c2nc(NC3CCCCC3)cc(C3CC3)n2)nc1`
(A) >167

Sourced from paper PMC8308625
